- System: human monocyte chemo-attractant protein-1 (MCP-1) (human, UniProt P13500 24-99)
- Sequence (P13500 24-99): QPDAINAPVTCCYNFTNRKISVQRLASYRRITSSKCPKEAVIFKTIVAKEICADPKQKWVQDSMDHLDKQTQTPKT
- Measurement Description: cell-based or functional assay
Value Kind: IC50 Chemotaxis (µg/mL)
Write the answer as a number in µg/mL, unit excluded.

Below, each entry is followed by its recorded IC50 Chemotaxis result.
>  <Binder>
anti-MCP-1 mAb 1.4.1 (antibody, V domains shown) VH: QSGPGLVKPSQTLSLTCAISGDSVSSNSAAWNWIRQSPSRGLEWLGRTYYRSKWYSDHAVSVRSRITIYPDTSKNQFSLQLNSVTPEDTAVYYCARDRISGTYVGMDVWGQGTTVTVSS VL: DIGMTQTPLSLSVTPGQPASISCKSSQSLLYSDGKTYLYWYLQKPGQPPQHLIYEVSNRFSGVPDRFSGSGSGTDFTLKISRVEADDVGVYYCMQTIHLPLTFGGGTKVEIQR

>  <IC50 Chemotaxis, µg/mL>
0.51

$$$$
>  <Binder>
anti-MCP-1 mAb 3.4.1 (antibody, V domains shown) VH: QVQLVQSGAEVKKPGASVKVSCKVSGYTLTELSMHWVRQAPGKGLEWMGGFDPEDGETMYAQKFQGRVTMTEDTSTDTAYMELSSLRSEDTAVYYCATDDFWSGYFDYWGQGTLVTVSS VL: DIVMTQSPDSLAVSLDERATINCKSSQSVLYSPNQKNYLVWYQQKPGQPPKLLLYWASIRESGVPDRFSGSGSGTDFTLTISSLQAEDVAVYYCQQSYFTPWTFGQGTKVEIKR

>  <IC50 Chemotaxis, µg/mL>
0.51

$$$$

Attention now shifts to the item below.
Sample anti-MCP-1 mAb 3.16.1 (antibody, V domains shown) VH: QVQLVQSGAEVKKPGASVKVSCKVSGYTLTDLSMHWVRQAPGKGLEWMGGFDPEDGETIYAQKFQGRVTMTEDTSSDTAYMELSSLRSEDTAVYYCATHEFWSGYFDYWGQGTLVTVSS VL: DIVMTQSPDSLAVSLGERATINCKSSQSVLFSSNNKSYLTWYQQKPGQPPKLLIFWASIRESGVPDRISGSGSGTDLTLTISSLQAEDAAVYYCQQYYSSPWTFGQGTKVEIKR ; IC50 Chemotaxis observed: 0.4
